targetUnderTest: PDGFRalpha(V561D) (Homo sapiens, UniProt P16234, V561D)
Construct: recombinant human PDGFRalpha, amino acids 550end containing the V561 D mutation; 6His (N)
Sequence (P16234 550-1089 V561D): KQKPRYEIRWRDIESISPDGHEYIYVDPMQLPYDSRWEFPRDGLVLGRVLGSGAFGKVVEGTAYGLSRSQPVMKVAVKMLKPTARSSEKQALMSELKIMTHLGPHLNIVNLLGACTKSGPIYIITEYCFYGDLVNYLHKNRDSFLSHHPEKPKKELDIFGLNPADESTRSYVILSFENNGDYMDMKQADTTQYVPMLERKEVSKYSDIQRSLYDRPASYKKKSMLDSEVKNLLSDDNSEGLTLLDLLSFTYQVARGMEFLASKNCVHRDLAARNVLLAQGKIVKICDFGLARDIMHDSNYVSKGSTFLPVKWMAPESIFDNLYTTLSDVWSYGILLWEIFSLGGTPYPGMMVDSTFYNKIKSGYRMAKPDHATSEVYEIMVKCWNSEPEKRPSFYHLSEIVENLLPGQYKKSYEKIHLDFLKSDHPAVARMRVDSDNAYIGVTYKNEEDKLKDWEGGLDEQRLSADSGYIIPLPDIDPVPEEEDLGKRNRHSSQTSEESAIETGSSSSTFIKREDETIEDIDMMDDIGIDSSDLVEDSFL
protocolDescription: PDGFRalpha(V561D) assay
experimentalSetup: recombinant human PDGFRalpha aa 550-end, 200 μM ATP, 1.4E-06 means 1.4×10^−6, read-out: Inhibition (IC50) of PDGFRα (V561D)
Procedure: PDGFRalpha(V561D) (N-terminal 6His-tagged, recombinant human PDGFRalpha, amino acids 550end containing the V561 D mutation) is incubated with 8 mM MOPS pH 7.0, 0.2 mM EDTA, 250 μM GGMEDIYEFMGGKKK, 10 mM MgAcetate and [gamma-33P-ATP] (specific activity approx. 500 cpm/pmol, concentration 200 μM). The reaction is initiated by the addition of the MgATP mix. After incubation for 40 minutes at room temperature, the reaction is stopped by the addition of 3% phosphoric acid solution. […]
measure: IC50 (nM)

Some solved entries appear below for comparison.
>>> df
                                   molecule                           targetundertest  numericvalue
0  COCCOC[C@@H]1CCN(C(=O)c2ccc(-n3cc(-c4cc5cc(F)ccc5[nH]c4=O)nn3)cc2)C1 [A210]  PDGFRalpha(V561D) (Homo sapiens, UniProt P16234, V561D)           300
1  O=C(c1ccc(-n2cc(-c3cc4cc(F)ccc4[nH]c3=O)nn2)cc1)N1CC2(COC2)C1 [A235]  PDGFRalpha(V561D) (Homo sapiens, UniProt P16234, V561D)           140
2  CN1CCC(N(C)C(=O)c2ccc(-n3cc(-c4cc5ccccc5[nH]c4=O)nn3)cc2)CC1 [A59]  PDGFRalpha(V561D) (Homo sapiens, UniProt P16234, V561D)            46
3  O=C(c1ccc(-n2cc(-c3cc4cc(F)ccc4[nH]c3=O)nn2)cc1)N1CCC2(COC2)C1 [A205]  PDGFRalpha(V561D) (Homo sapiens, UniProt P16234, V561D)            94

a. O=C(c1ccc(-n2cc(-c3cc4cc(F)ccc4[nH]c3=O)nn2)cc1)N1CC[C@@H](O)C1 [A181]
b. O=C(c1ccc(-n2cc(-c3cc4c(F)cccc4[nH]c3=O)nn2)cc1)N1CCNCC1 [A119]
Which gives the smaller IC50 number: a or b ? // return label of chosen record
a

I. CN(C)C(=O)c1ccc(-n2cc(-c3cc4cc(Cl)cnc4[nH]c3=O)nn2)cc1 [A11]
II. O=C(c1ccc(-n2cc(-c3cc4cc(F)ccc4[nH]c3=O)nn2)cc1)N1CCC(OCCN2CCOCC2)C1 (centres unmarked) [A209]
Look at I and II . Which one has the lower recorded IC50 number? Give the label under which the chosen entry appears.
I

a. CN(C)C[C@H]1CCCN1C(=O)c1ccc(-n2cc(-c3cc4cc(F)ccc4[nH]c3=O)cn2)cc1 [A325]
b. O=C(c1ccc(-n2cc(-c3cc4cccnc4[nH]c3=O)nn2)cc1)N1CCOCC1 [A47]
Kindly identify the item with the lower IC50 figure among these two: a and b Let me know the label of the one you choose.
a
(a: 3.8 nM, b: 7 nM)

I. O=C1COCCN1c1ccc(-n2cc(-c3cc4ccccc4[nH]c3=O)nn2)cc1F [A32]
II. O=C(c1ccc(-n2cc(-c3cc4cc(F)ccc4[nH]c3=O)nn2)cc1)N1CC[C@H](O)C1 [A182]
// compare measured IC50, left I , right II , return larger Mark your selection by writing its label.
I
(I: 11 nM, II: 1.2 nM)

a. O=c1[nH]c2ccccc2cc1-c1cn(-c2ccc(OCCN3CCCC3)cc2)nn1 [A14]
b. COC(=O)c1cc(-n2cc(-c3cc4ccccc4[nH]c3=O)nn2)ccn1 [A17]
c. COc1ccc2cc(-c3cn(-c4ccc(C(=O)N5CCOCC5)cc4)nn3)c(=O)[nH]c2c1 [A93]
Arrange these molecules by their IC50, starting with the largest number. Form entry: ranked labels (order as requested).
c, b, a
(c: 310 nM, b: 67 nM, a: 20 nM)

a. O=c1[nH]c2ccc(F)cc2cc1-c1cn(-c2ccc(N3CCCS3(=O)=O)cc2)nn1 [A99]
b. O=C(c1ccc(-n2cc(-c3cc4cc(F)ccc4[nH]c3=O)nn2)cc1)N1CCCC2(COC2)C1 [A228]
Hey, which is lower on measured IC50, a or b ? Give the label of your selection.
a
(a: 76 nM, b: 300 nM)

Data provenance is patent US11939314B2.
